# Test system: SK-MEL-2
# procedure.text: Cytotoxicity against human SK-MEL-2 cells by SRB assay
# Format: functional, cell-based
Exercise: for every item that follows, state its recorded pIC50.
One number for each entry, as −log10 of the molar value.

In [3]: df
Out[3]:
                               molecule  target_under_test  readout_number
0  COc1cc(OC)c(OC)cc1/C=C\CO [ACORAMOL]           SK-MEL-2            4.60

# next molecule below
For SK-MEL-2, provide pIC50 of COc1cc([C@H](O)[C@@H](CO)Oc2c(OC)cc(CCCO)cc2OC)ccc1O (relative stereo) please.
4.54

* * *

# procedure.text: Cytotoxicity against mouse BV2 cells assessed as cell viability at 20 uM by MTT assay
# Type: cell-based, BV-2
# condition.parameters: read-out: Activity
reported.property: viability at 20 µM
The reply must contain the numeric value and, after it, the unit.

Give measured viability at 20 µM for every item shown.
1. COc1cc(/C=C/C(=O)NC[C@@H](O)c2ccc(O)cc2)ccc1O
2. CNC(=N)NCCC[C@H](N)C(=O)O

["98.3%", "98.8%"]

Give measured viability at 20 µM for every item shown.
1. COc1cc(CCCO)ccc1O[C@H](C)[C@H](O)c1cc(OC)c(OC)c(OC)c1
2. COc1cc(/C=C\C(=O)NCCc2ccc(O)cc2)ccc1O
3. COc1cc(OC)c(OC)cc1/C=C\CO
4. COc1cc(/C=C/C(=O)NCCc2ccc(O)cc2)ccc1O [N-TRANS-FERULOYL TYRAMINE]
5. COc1cc(/C=C\CO)ccc1O

1: 88.8%; 2: 100%; 3: 105%; 4: 97.8%; 5: 98.4%

Give measured viability at 20 µM for every item shown.
1. COc1cc([C@H](O)[C@@H](CO)Oc2c(OC)cc(CCCO)cc2OC)ccc1O (relative stereo)
2. COc1cc(CCCO)cc(OC)c1OC
3. O=C(CCO)c1ccc(O)cc1
4. COc1cc(CCCO)ccc1O[C@H](C)[C@@H](O)c1cc(OC)c(OC)c(OC)c1
5. COc1ccc(CCCO)cc1OC
6. COc1cc(OC)c([C@H]2[C@@H](C)[C@@H](c3cc(OC)c(OC)cc3OC)O[C@@H]2C)cc1OC (relative stereo)

["106%", "96.3%", "107%", "76.2%", "103%", "101%"]

# input compound: COc1cc(OC)c([C@@H]2[C@H](C)[C@@H](C)[C@H]2c2cc(OC)c(OC)cc2OC)cc1OC (relative stereo) ; wanted: its viability at 20 µM
93.1%

* * *

# Tested on: SK-MEL-2
# procedure.text: Cytotoxicity against human SK-MEL-2 cells by SRB assay
# Format: functional, cell-based
Param label: returns true (1) when IC50 < 10 µM, returns false (0) otherwise, including exact equality.

>>> print(df.to_string())
                                   compound  class_label
0  COc1cc(CCCO)ccc1O[C@H](C)[C@@H](O)c1cc(OC)c(OC)c(OC)c1 [SURINAMENSINOL B]    false (0)

Is 10 µM strictly greater than the compound's reported IC50? compound: COc1cc(/C=C\C(=O)NCCc2ccc(O)cc2)ccc1O
false (0)

Is 10 µM strictly greater than the compound's reported IC50? compound: O=C(CCO)c1ccc(O)cc1
false (0)

Is 10 µM strictly greater than the compound's reported IC50? compound: COc1cc(OC)c([C@@H]2[C@H](C)[C@@H](C)[C@H]2c2cc(OC)c(OC)cc2OC)cc1OC (relative stereo) [MAGNOSALIN]
true (1)

Is 10 µM strictly greater than the compound's reported IC50? compound: COc1cc(OC)c([C@H]2[C@@H](C)[C@@H](c3cc(OC)c(OC)cc3OC)O[C@@H]2C)cc1OC (relative stereo)
false (0)
